The following compounds are shown together with reported Kd values.
Biological target: high-affinity state of dopamine D2 receptors (Rattus norvegicus)
Construct: from tissue; host or cells: rat striatum, homogenized
Sequence (P61169 whole entry): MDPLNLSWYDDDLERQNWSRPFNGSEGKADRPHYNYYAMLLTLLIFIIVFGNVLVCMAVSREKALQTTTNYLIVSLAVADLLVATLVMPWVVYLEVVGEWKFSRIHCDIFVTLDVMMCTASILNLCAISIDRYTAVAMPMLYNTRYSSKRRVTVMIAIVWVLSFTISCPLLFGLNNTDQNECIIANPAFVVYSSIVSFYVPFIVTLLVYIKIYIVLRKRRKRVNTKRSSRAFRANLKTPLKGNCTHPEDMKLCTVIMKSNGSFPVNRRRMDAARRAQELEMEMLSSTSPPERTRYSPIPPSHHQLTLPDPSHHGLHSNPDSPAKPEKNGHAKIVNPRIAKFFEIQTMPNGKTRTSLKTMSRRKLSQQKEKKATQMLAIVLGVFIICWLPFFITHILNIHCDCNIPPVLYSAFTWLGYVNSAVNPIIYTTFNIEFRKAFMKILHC
Experiment: Biological potency on the high-affinity state of dopamine D2 receptors in rat homogenized striatal tissue
Assay type: binding
Conditions: [3H]-domperidone
Excerpt: It is herein submitted that the short-term use of tracer doses of a compound of the invention, wherein R^1 is C1-6alkyl in which one hydrogen atom on the alkyl chain in replaced with radioactive fluoro, in radioimaging procedures will be of diagnostic and therapeutic importance in dopamine-related disorders.
Counter-ions that a name gives are not always drawn.
The figure you give is taken to be in nM; do not add the unit.

Completed entries (count: 4):
Oc1ccc2c(c1)[C@H]1OCCN(CCCF)[C@@H]1CC2 [(+)-F-PHNO, Hydrochloride] : 0.46
Oc1ccc2c(c1)[C@H]1OCCN(CCCCCF)[C@@H]1CC2 [(+)-F-Pent-HNO, Hydrochloride] : 25
Oc1ccc2c(c1)[C@H]1OCCN(CCCCCCF)[C@@H]1CC2 [(+)-F-Hex-HNO, Hydrochloride] : 52
Oc1ccc2c(c1)[C@H]1OCCN(CCF)[C@@H]1CC2 [(+)-F-EHNO, Hydrochloride] : 1.7

Here is another compound to look at.
stdin: Could you share which Kd value was measured for Oc1ccc2c(c1)[C@H]1OCCN(CCCCF)[C@@H]1CC2 [(+)-F-But-HNO, Hydrochloride] ?
stdout: 20
